Test: The drug is tested on WLS-010 corresponding to human gut metagenome with ENA study accession number: PRJEB37062 and ENA sample accession number: ERS12561743 for biotransformation under anaerobic condition. The drug concentrations were measured over 9 timepoints collected between 0 and 24 hours of incubation by liquid-chromatography-coupled mass spectrometry (LC–MS); also: call rule not given here
Conditions: 2 µM
quantity: Bacterial Biotransformation

In: Please give the measured Bacterial Biotransformation for this compound: CN1CCN(C2=Nc3ccccc3Oc3ccc(Cl)cc32)CC1.O=C(O)CCC(=O)O [LOXAPINE SUCCINATE]
Out: Compound NOT metabolized

In: Moving on to the next compound: Clc1cccc(Cl)c1N=C1NCCN1
Out: Compound metabolized

In: For CCN(CC)C(=O)C1(c2ccccc2)CC1CN (stereo not drawn) then?
Out: Compound NOT metabolized

In: And the next one, O=C1CC2(CCCC2)CC(=O)N1CCCCN1CCN(c2ncccn2)CC1 ?
Out: Compound NOT metabolized

In: Follow-up item: CNCC[C@H](Oc1cccc2ccccc12)c1cccs1
Out: Compound NOT metabolized

In: Check COC1=C(OC)C(=O)C(CCCCCCCCCCO)=C(C)C1=O too.
Out: Compound metabolized

Continuing:
In: # input compound: Nc1nnc(-c2cccc(Cl)c2Cl)c(N)n1 ; wanted: its Bacterial Biotransformation
Out: Compound NOT metabolized

In: Again, but for CC12CC3CC(C)(C1)CC(N)(C3)C2 [MEMANTINE]
Out: Compound NOT metabolized

In: Try this compound too: CN1[C@@H]2CC[C@H]1C[C@@H](OC(=O)c1c[nH]c3ccccc13)C2
Out: Compound NOT metabolized

In: Now consider Cc1ccccc1C(OCCN(C)C)c1ccccc1.O=C(O)CC(O)(CC(=O)O)C(=O)O (stereo not drawn) [ORPHENADRINE CITRATE] and answer again.
Out: Compound metabolized

In: Also, O=C(CCCN1CCC2(CC1)C(=O)NCN2c1ccccc1)c1ccc(F)cc1 please.
Out: Compound NOT metabolized
